meta.source: ChEMBL document CHEMBL1201862

system: DLD-1; assay: NCI tumour cell line growth inhibition, 48 h
Active and inactive are the calls of the source. Cut-off read from the data, not from the text of the source: active = GI50 up to about 1.1 µM and inactive = higher.
MEASURE_NAME: GI50

{"MOLECULE": "Cc1nc2ccccc2c(=O)n1/N=C(\\N=N\\c1cc(Cl)ccc1Cl)c1ccc(N(C)C)cc1", "RECORDED_RESULT": "62.7 µM (inactive)"}
{"MOLECULE": "COc1ccc(CC/N=C2\\CCC(C(=O)NCCc3ccc(OC)c(OC)c3)N2)cc1OC (centres undefined)", "RECORDED_RESULT": "> 100 µM (inactive)"}
{"MOLECULE": "Oc1ccc2occ3c2c1CCC3", "RECORDED_RESULT": "> 100 µM (inactive)"}

Please examine the following record next.
Query string: Look up GI50 for this molecule: "COc1cc2c(c(O)c1C)C(=O)C(Cl)=CC2=O"
Result string: 17.4 µM (inactive)

###

test system: SK-MEL-2; experiment: NCI tumour cell line growth inhibition, 48 h
Active and inactive are the calls of the source. No stated cut-off is given here; in the data, active = GI50 up to about 1.1 µM and inactive = higher.
Entries and their GI50

{"COMPOUND": "COC(=O)C1(C(=O)OC)Cc2ccc(OC)cc2C2=C1C(=O)c1ccccc1C2=O", "SYSTEM": "SK-MEL-2", "RECORDED_RESULT": "5.7 µM (inactive)"}
{"COMPOUND": "CC(=O)NC1C(OCc2ccccc2)OC(CO)C(O)C1OC(C)C(=O)NC(C(=O)NC(CCC(=O)NCCCNc1ccc([N+](=O)[O-])c2[nH]c3ccccc3c(=O)c12)C(N)=O)C(C)C (stereo not given)", "SYSTEM": "SK-MEL-2", "RECORDED_RESULT": "> 100 µM (inactive)"}
{"COMPOUND": "O=C(O)CCC1NC(/C(=C/c2ccccc2O)NC(=O)c2ccccc2)OC1=O (stereo not given)", "SYSTEM": "SK-MEL-2", "RECORDED_RESULT": "> 100 µM (inactive)"}
{"COMPOUND": "C#CCn1c(=O)c(I)cn(/C(=C\\C(=O)OCC)C(=O)OCC)c1=O", "SYSTEM": "SK-MEL-2", "RECORDED_RESULT": "18.9 µM (inactive)"}
{"COMPOUND": "COc1ccc(C2C(N)=NCC2c2ccccn2)cc1 (stereo not given)", "SYSTEM": "SK-MEL-2", "RECORDED_RESULT": "> 100 µM (inactive)"}

Query string: Look up GI50 for this compound: Cc1[nH]c(=O)[nH]c(=O)c1/C=C/C(=O)NC(CO)C[S+]([O-])C[S+](C)[O-] (stereo not given)
Result string: 13.5 µM (inactive)

Query string: Look up GI50 for this compound: COc1ccc(C2c3c(-c4ccccc4)nn(-c4ccccc4)c3Oc3ncn(N)c(=N)c32)cc1OC (stereo not given)
Result string: 1.83 µM (inactive)

###

test system: LOX IMVI; experiment: NCI tumour cell line growth inhibition, 48 h
The source made the active and inactive calls. Rule as the data show it: active = GI50 up to about 1.1 µM and inactive = higher.
One label from this list, please: active, inactive

{"MOLECULE": "CC(=N\\N)/C(C)=N/N=C(C)/C(C)=N/N=C(C)/C(C)=N/N=C(C)/C(C)=N/N", "LABEL_CLASS": "inactive"}
{"MOLECULE": "C(CCC[Te][Te]CCCCCCOC1CCCCO1)CCOC1CCCCO1 (stereo not drawn)", "LABEL_CLASS": "inactive"}
{"MOLECULE": "CC(=O)NC1C(OCc2ccccc2)OC(CO)C(O)C1OC(C)C(=O)NC(C(=O)NC(CCC(=O)NCCCNc1ccc([N+](=O)[O-])c2[nH]c3ccccc3c(=O)c12)C(N)=O)C(C)C (stereo not drawn)", "LABEL_CLASS": "inactive"}

Query string: Fill in: this test's call for COC(=O)C(C(=O)C(=O)Nc1ccccc1C(C)=O)c1nc2ccc(Cl)cc2nc1O (stereo not drawn) is ___
Result string: inactive

Query string: Fill in: this test's call for "O=C(O)[C@H]1CCCN1CP(=O)(O)CN1CCC[C@@H]1C(=O)O" is ___
Result string: inactive

Query string: Fill in: this test's call for "Oc1nc(-c2ccccc2)cc(-c2ccccc2O)n1" is ___
Result string: inactive

Query string: Fill in: this test's call for "CCC1(O)C=CC(=O)C=C1" is ___
Result string: inactive

Query string: Fill in: this test's call for CC(CO)CCC(O)C(C)(O)C1CCC2(O)C3=CC(=O)C4CC(O)C(O)CC4(C)C3CCC12C (stereo not drawn) is ___
Result string: inactive
